target: Leukotriene D4 receptor (Cavia porcellus, UniProt Q2NNR5); construct: As a receptor sample, a lung cell membrane fraction from guinea pigs was used; from tissue; host or cells: lung membrane fraction of Hartley male guinea pigs; test: Leukotriene D4 receptor binding test; details: binding inhibition constant (Ki) vs [3H] LTD4 0.2 nM; lung cell membrane fraction from guinea pigs; 25° C. for 30 minutes; read-out: pKi value (converted)
Sequence (Q2NNR5 whole entry): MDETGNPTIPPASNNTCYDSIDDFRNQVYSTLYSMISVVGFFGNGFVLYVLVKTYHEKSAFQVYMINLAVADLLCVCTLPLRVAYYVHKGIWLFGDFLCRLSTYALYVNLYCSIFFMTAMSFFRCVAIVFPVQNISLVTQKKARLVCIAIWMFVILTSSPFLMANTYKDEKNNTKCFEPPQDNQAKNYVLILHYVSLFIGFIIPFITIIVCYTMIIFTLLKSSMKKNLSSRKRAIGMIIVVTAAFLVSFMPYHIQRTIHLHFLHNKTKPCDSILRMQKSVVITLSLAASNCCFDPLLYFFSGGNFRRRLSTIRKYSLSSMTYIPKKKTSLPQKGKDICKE
property: Ki (nM)
Dear colleague, please return just the value in nM, with no unit written.

Past entries and their recorded results:
{"molecule": "O=C([O-])CCSC1c2ccccc2COc2ccc(/C=C/c3ccc4cc(F)c(F)cc4n3)cc21.[Na+] (centres unmarked)", "system-name": "Leukotriene D4 receptor (Cavia porcellus, UniProt Q2NNR5)", "display-unit": "nM", "reported-result": 0.251}
{"molecule": "O=C([O-])CCSC1c2ccccc2COc2ccc(/C=C/c3ccc4c(F)cc(F)cc4n3)cc21.[Na+] (centres unmarked)", "system-name": "Leukotriene D4 receptor (Cavia porcellus, UniProt Q2NNR5)", "display-unit": "nM", "reported-result": 0.794}
{"molecule": "C#Cc1cccc2c1COc1ccc(/C=C/c3ccc4cc(F)c(F)cc4n3)cc1C2SCCC(=O)[O-].[Na+] (centres unmarked)", "system-name": "Leukotriene D4 receptor (Cavia porcellus, UniProt Q2NNR5)", "display-unit": "nM", "reported-result": 0.158}
{"molecule": "O=C([O-])CCSC1c2cc(/C=C/c3ccc4cc(F)c(F)cc4n3)ccc2OCc2c1cccc2C(F)(F)F.[Na+] (centres unmarked)", "system-name": "Leukotriene D4 receptor (Cavia porcellus, UniProt Q2NNR5)", "display-unit": "nM", "reported-result": 0.631}
{"molecule": "O=C([O-])CCSC1c2ccccc2COc2ccc(/C=C/c3ccc4cc(F)c(Cl)cc4n3)cc21.[Na+] (centres unmarked)", "system-name": "Leukotriene D4 receptor (Cavia porcellus, UniProt Q2NNR5)", "display-unit": "nM", "reported-result": 0.316}

Ask | Assign Ki to the following record: O=C([O-])CCSC1c2ccccc2CCc2ccc(/C=C/c3ccc4cc(F)c(F)cc4n3)cc21.[Na+] (centres unmarked)
Reply | 0.794

Ask | Assign Ki to the following record: C[C@@H](CSC1c2ccccc2COc2ccc(/C=C/c3ccc4c(n3)CCCC4)cc21)C(=O)[O-].[Na+] (some centres unmarked)
Reply | 0.316

Ask | Assign Ki to the following record: C[C@@H](CSC1c2ccccc2COc2ccc(/C=C/c3ccc4ccc(F)cc4n3)cc21)C(=O)[O-].[Na+] (some centres unmarked)
Reply | 0.2

Ask | Assign Ki to the following record: C[C@H](CSC1c2ccccc2COc2ccc(/C=C/c3ccc4cc(F)c(F)cc4n3)cc21)C(=O)[O-].[Na+] (some centres unmarked)
Reply | 0.126

Ask | Assign Ki to the following record: O=C(O)CCSC1c2ccccc2COc2ccc(OCc3ccc4cc(F)c(Cl)cc4n3)cc21 (centres unmarked) [Compound A, reference compound]
Reply | 0.316

Ask | Assign Ki to the following record: C[C@@H](CSC1c2ccccc2COc2ccc(/C=C/c3ccc4ccc(Cl)cc4n3)cc21)C(=O)[O-].[Na+] (some centres unmarked)
Reply | 0.501

Ask | Assign Ki to the following record: O=C(O)C(F)(F)F.O=C(O)CC1(CSC2c3cc(/C=C/c4ccc5cc(F)c(F)cc5n4)ccc3OCc3c(F)cccc32)CC1 (centres unmarked) [Example 3, trifluoroacetic acid salt]
Reply | 0.158

Ask | Assign Ki to the following record: O=C([O-])CCSC1c2ccccc2COc2ccc(/C=C/c3ccc4c(F)c(F)c(F)cc4n3)cc21.[Na+] (centres unmarked)
Reply | 0.631

Ask | Assign Ki to the following record: O=C([O-])CCSC1c2cc(/C=C/c3ccc4cc(F)c(F)cc4n3)ccc2COc2ccccc21.[Na+] (centres unmarked)
Reply | 0.126
